SYSTEM_UNDER_TEST: α1β2γ2L GABAAR (Mus musculus, UniProt P22723+P62812+P63137)
Sequence (P62812 28-455): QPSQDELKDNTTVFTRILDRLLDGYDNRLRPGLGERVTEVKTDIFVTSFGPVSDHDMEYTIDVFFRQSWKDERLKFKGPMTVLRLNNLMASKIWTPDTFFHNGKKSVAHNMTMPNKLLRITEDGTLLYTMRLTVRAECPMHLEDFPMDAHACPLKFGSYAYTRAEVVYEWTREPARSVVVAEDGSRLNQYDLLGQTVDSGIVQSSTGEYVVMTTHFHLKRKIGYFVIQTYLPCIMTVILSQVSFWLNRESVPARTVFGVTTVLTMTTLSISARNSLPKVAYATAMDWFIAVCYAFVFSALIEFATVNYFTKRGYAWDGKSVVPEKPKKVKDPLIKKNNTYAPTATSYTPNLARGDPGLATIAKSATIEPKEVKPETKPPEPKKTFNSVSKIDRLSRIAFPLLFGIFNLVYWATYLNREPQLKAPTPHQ
Sequence (P63137 25-512 limits assumed): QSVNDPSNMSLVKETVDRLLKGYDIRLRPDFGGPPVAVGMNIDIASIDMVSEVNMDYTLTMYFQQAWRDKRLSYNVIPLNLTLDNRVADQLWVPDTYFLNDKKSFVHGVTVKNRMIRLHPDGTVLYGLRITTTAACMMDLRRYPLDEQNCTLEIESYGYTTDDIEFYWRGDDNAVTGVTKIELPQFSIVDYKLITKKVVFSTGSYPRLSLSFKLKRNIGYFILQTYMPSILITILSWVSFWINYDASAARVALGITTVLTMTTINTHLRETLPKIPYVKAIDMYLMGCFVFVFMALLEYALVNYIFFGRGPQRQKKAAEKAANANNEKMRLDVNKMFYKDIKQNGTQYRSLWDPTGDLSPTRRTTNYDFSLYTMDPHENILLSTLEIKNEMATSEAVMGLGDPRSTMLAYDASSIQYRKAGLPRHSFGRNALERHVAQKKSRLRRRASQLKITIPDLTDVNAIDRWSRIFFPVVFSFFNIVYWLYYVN
Sequence (P22723 39-474): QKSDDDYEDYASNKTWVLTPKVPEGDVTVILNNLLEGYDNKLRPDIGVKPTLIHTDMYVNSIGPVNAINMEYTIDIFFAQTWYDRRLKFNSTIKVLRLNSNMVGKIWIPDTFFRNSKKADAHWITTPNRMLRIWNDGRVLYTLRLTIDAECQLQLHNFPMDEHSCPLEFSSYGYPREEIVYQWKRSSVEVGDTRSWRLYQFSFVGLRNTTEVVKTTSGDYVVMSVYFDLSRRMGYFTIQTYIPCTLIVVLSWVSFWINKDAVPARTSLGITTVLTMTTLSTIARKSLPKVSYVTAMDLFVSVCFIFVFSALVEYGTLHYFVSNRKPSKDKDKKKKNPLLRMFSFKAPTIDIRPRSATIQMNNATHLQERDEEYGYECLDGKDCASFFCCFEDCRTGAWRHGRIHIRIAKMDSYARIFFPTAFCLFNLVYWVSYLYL
ASSAY_SUMMARY: whole-cell currents of recombinant GABAA receptors in HEK-293 cells (α1β2γ2L)
READOUT_KIND: IC50 (µM)
Your answer is read as µM, so omit the unit and give the number.

IC50 reading for "CC(C)(CO)Cc1cc(C(C)(C)C)c(O)c(C(C)(C)C)c1" : 6.6

---

SYSTEM_UNDER_TEST: α4β3δ GABAAR (Mus musculus, UniProt P22933+P63080+Q9D6F4)
Sequence (Q9D6F4 36-552): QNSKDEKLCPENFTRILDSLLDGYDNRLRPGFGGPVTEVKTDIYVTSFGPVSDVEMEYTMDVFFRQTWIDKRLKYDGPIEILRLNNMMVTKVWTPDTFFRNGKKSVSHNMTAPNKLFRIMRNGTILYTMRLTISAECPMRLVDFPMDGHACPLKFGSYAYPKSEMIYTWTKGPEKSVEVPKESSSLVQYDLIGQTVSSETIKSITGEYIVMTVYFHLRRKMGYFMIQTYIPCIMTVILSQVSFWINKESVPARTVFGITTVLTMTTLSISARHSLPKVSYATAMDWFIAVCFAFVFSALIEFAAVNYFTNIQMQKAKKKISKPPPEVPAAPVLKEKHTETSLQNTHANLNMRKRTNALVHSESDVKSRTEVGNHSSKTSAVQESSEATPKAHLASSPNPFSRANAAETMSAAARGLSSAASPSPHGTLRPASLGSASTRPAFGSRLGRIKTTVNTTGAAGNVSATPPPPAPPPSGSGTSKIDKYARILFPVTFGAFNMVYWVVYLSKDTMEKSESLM
Sequence (P63080 26-473): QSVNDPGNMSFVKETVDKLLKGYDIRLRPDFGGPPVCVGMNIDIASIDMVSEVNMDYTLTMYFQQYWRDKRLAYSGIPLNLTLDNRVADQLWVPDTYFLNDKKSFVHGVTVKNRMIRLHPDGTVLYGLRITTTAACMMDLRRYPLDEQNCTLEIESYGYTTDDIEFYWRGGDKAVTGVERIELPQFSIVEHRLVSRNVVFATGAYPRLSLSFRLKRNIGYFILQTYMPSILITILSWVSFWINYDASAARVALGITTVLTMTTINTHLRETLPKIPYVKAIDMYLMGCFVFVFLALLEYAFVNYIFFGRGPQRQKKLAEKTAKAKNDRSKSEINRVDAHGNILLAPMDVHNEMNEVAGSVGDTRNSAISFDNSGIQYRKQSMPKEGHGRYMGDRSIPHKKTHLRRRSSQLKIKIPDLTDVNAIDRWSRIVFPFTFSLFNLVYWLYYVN
Sequence (P22933 17-449 limits assumed): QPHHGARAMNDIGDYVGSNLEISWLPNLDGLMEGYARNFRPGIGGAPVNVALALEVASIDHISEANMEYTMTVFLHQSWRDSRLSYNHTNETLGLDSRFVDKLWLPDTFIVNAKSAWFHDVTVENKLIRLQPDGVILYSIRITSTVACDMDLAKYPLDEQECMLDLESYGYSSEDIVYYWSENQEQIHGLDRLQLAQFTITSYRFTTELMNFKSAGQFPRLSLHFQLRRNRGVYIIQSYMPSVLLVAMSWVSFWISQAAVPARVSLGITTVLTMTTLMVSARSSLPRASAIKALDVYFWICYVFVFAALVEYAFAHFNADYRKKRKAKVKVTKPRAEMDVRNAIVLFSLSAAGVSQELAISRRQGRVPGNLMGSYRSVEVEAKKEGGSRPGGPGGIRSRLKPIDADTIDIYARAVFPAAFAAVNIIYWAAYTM
ASSAY_SUMMARY: whole-cell currents of recombinant GABAA receptors in HEK-293 cells (α4β3δ)
READOUT_KIND: pIC50
API: returns pIC50 as number; meaning -log10 of concentration in mol/L.

pIC50 reading for "CC(C)(CO)Cc1cc(C(C)(C)C)c(O)c(C(C)(C)C)c1" : 4.71

---

SYSTEM_UNDER_TEST: α1β2γ2L GABAAR (Mus musculus, UniProt P22723+P62812+P63137)
Construct: expressed in transfected cells; host or cells: HEK-293T
ASSAY_SUMMARY: whole-cell currents of recombinant GABAA receptors in HEK-293 cells (α1β2γ2L)
Assay type: cell-based, murine
CONDITIONS_USED: EC50 of GABA EC20 modulation curve, α1β2γ2L, ∼EC20 GABA, direct effects subtracted, n = 5
READOUT_KIND: pEC50
API: returns pEC50 as number; meaning -log10 of concentration in mol/L.

pEC50 reading for CC(C)(CO)Cc1cc(C(C)(C)C)c(O)c(C(C)(C)C)c1 [CGP7930] : 5.77
